Where these numbers come from: patent US9290507B2

# experimental.system: B-Raf (V600E)-kinase (Homo sapiens (Human), UniProt P15056, V600E)
# Sequence (P15056 whole entry V600E): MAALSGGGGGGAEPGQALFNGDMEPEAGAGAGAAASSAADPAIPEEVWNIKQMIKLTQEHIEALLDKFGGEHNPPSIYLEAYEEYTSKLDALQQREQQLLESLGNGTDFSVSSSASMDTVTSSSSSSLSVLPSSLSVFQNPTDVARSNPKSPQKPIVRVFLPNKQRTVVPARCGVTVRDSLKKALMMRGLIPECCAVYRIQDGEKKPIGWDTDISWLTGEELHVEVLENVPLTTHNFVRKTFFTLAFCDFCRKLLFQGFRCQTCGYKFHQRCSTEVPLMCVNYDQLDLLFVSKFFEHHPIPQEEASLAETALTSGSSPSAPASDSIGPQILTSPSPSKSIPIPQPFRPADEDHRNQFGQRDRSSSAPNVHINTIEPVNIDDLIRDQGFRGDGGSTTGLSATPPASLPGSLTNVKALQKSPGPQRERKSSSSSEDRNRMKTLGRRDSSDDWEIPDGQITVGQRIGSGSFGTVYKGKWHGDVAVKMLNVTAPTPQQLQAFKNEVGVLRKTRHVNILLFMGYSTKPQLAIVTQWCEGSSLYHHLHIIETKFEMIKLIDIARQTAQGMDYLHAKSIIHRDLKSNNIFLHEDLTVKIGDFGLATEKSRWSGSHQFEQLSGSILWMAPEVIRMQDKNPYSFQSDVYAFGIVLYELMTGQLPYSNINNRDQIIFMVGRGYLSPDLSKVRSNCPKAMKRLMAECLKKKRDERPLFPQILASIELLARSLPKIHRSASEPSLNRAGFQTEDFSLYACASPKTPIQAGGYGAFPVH
# protocol: Kinase test B-Raf (V600E)
# experimental.parameters: 1 h preincubation, 250 μM ATP
# Experimental: In a dilution series 10 μL/well of test substance solution are placed in a multiwell plate. The dilution series is selected so that generally a range of concentrations of 2 μM to 0.119 nM or 0.017 nM is covered. […] After the addition of 200 μL/well Enhancement Solution (Perkin Elmer, #4001-0010/#1244-105) the mixture is shaken for 10 min at RT and then measured in a Wallac Victor using the program “Delfia Time Resolved Fluorescence (Europium)”. […]
recorded.endpoint: IC50 (nM)
Numeric only. Scale: nM

## Task So what's the measured IC50 for this one? Cc1ccc(NC(=O)c2cc(C(F)(F)F)ccn2)cc1-n1cc(-c2cncc(N3CCOCC3)c2)nn1
## Result 9

## Task So what's the measured IC50 for this one? CCN1CCC2(CCN(c3cncc(-c4cn(-c5cc(C(=O)Nc6cc(C(C)(C)C)on6)ccc5C)nn4)c3)C2)C1 (stereo not drawn)
## Result 9

## Task So what's the measured IC50 for this one? Cc1ccc(C(=O)Nc2cc(C(C)(C)C)on2)cc1-n1cc(-c2cncc(NCC3CCCO3)c2)nn1 (stereo not drawn)
## Result 9

## Task So what's the measured IC50 for this one? Cc1ccc(C(=O)Nc2cc(C(F)(F)F)ccn2)cc1-n1cc(-c2cncc(N(C)C)c2)nn1
## Result 24

## Task So what's the measured IC50 for this one? Cc1ccc(C(=O)Nc2cc(C(C)(C)C)n[nH]2)cc1-n1cc(-c2cncc(N3CCOCC3)c2)nn1
## Result 12

## Task So what's the measured IC50 for this one? Cc1ccc(C(=O)Nc2cc(C(C)(C)C)on2)cc1-n1cc(-c2cncc(N(C)C)c2)nn1
## Result 13

## Task So what's the measured IC50 for this one? Cc1ccc(C(=O)Nc2cc(C(C)(C)C)on2)cc1-n1cc(-c2cncc(N3CCCN(C)CC3)c2)nn1
## Result 8

## Task So what's the measured IC50 for this one? Cc1ccc(C(=O)Nc2cc(C(C)(C)C)on2)cc1-n1cc(-c2cncc(N(C)C(C)C)c2)nn1
## Result 45

## Task So what's the measured IC50 for this one? Cc1ccc(NC(=O)c2ccc(C(C)(C)C)o2)cc1-n1cc(-c2cncc(N3CCN(CC(C)C)CC3)c2)nn1
## Result 5
